assay.info: Solubility of DHEA in ethanol and MCT oil
Assay type: physicochemical
details: ethanol, organic solvent or mixture; read-out: solubility in ethanol

compound	solubility
C[C@]12CC[C@H](O)CC1=CC[C@@H]1[C@@H]2CC[C@]2(C)C(=O)CC[C@@H]12 [DHEA]	~150 mg/mL

----------
assay.info: Solubility of DHEA in ethanol and MCT oil
Format: physicochemical
details: medium chain triglyceride (MCT) oil, oil or lipid; MCT oil; read-out: solubility in MCT oil

substance.smiles	solubility
C[C@]12CC[C@H](O)CC1=CC[C@@H]1[C@@H]2CC[C@]2(C)C(=O)CC[C@@H]12	~10000 µg/mL
